experimental.protocol: yeast display, Sf9 membrane polyspecificity reagent, FACS + sequencing; frameworks hold sequencing errors

residues | polyreactivity (PSR sort gate)
QVQLVESGGGLVQAGGSLRLSCAASGITFLFYAMGWYIPAPGKEREYVAAISTRGGRTYYADSVKGRFTISRDNAKNTVYLQMNSLKPEDTAVYYCAADFYYRTVATVTSVARYDYWGQGTQVTVSS | high polyreactivity
QVQLVESGGGLVQAGGSLRLSCAASGRSFYGYAMGWYRQAPGKERELVARISGGGRTYYADSVKGRFTISRDNAKNTVYLQMNSLNPEDTAVYYCAAVYRSTWYGFTGSVGTFDYWGQGTQVTVSS | high polyreactivity
QVQLVESGGGLVQAGGSLRLSCAAYGFTFIYYAMGRYRQAPGKERELVAAISRRGGSTYYADSVKGRFTISRDNAKNTVYLQMNSLKPEDTAVYYCAAYTLNTRYDYWGQGTQVTVSS | high polyreactivity

Taken from the nanobody polyreactivity screen of Harvey et al. (2022).
